Where these numbers come from: paper PMC5540273

Consider molecules characterized by their Kd with RPS6KA4(Kin.Dom.1-N-terminal).

// sample O=C1NC(=O)C(c2ccc(Cl)cc2)=C1Nc1cccc(Cl)c1 , its Kd was > 10 µM

// sample Cc1nccc(-c2c(-c3ccc(F)cc3)ncn2CCCN2CCOCC2)n1.Cl , its Kd was > 10 µM

----------
What %Inh was measured for each of the following?
System: GRK3
Construct: gene ADRBK2
Settings: concentration: 1 μM, replicates: in singlicate; n = 1
Kindly answer with a numeric value in %, unit omitted.

// sample Nc1nccc(-c2c(-c3ccc(F)cc3)ncn2C2CCN(Cc3ccccc3)CC2)n1 [SB-219980] , its %Inh was 6

// sample COC(=O)C(Cc1ccccc1)NC(=O)NC1CCN(c2ccnc(Nc3ccc(F)cc3)n2)C1 (stereo not drawn) [GSK1379714] , its %Inh was 58

// sample COc1ccc(Nc2nccc(N3CCC(NC(=O)C(C)c4ccc(Cl)cc4)CC3)n2)cc1 (stereo not drawn) [GSK1379812] , its %Inh was 8

// sample CCc1ccc(-c2ccc3c(c2)-c2n[nH]cc2S(=O)(=O)N3C)cc1 , its %Inh was 0

// sample COc1ccc(CSc2nnc(-c3ccc4nccn4c3)o2)cc1C(F)(F)F , its %Inh was 37

// sample Fc1ccc(-c2nn3cccc(F)c3c2-c2ccncc2)cc1 [GW475620] , its %Inh was 0

// sample Cc1cnc(N)c(/C=C/c2cncc(C(=O)NCCc3ccc(Cl)cc3Cl)c2)c1.Cl [GSK190937] , its %Inh was 6

// sample COC(=O)c1cccc(NC(=O)NC2CCN(c3ccnc(Nc4ccc(OC)cc4)n3)C2)c1 (stereo not drawn) [GSK1379746] , its %Inh was 43

// sample CNc1nc(-c2ccc3c(N)n[nH]c3c2)cc(N2C[C@@H](C(=O)NC3CCCCC3)OC[C@H]2C)n1 [GSK2375584] , its %Inh was 37

// sample COc1ccc(-c2coc3ccc(-c4nnc(C)o4)cc23)cc1 , its %Inh was 0

// sample COc1cccc(C2=C(Nc3cc(Cl)c(O)c(Cl)c3)C(=O)NC2=O)c1 [SB-390767] , its %Inh was 28

// sample Cc1ccc(NC(=O)Nc2ccccc2F)cc1-c1ccc(C(=O)Nc2ccncc2)cc1 [GSK1398477] , its %Inh was 0

// sample O=C1NC(=O)C(c2ccc(Cl)cc2)=C1Nc1ccc(O)cc1 [SB-340867] , its %Inh was 0

// sample COc1ccc(Nc2nccc(N3CCC(NC(=O)C(C)c4ccc(Cl)cc4)C3)n2)cc1 (stereo not drawn) [GSK1379735] , its %Inh was 20

// sample O=C(Nc1n[nH]c2nc(-c3cccs3)c(Br)cc12)C1CCCC1 [SB-743341] , its %Inh was 24

// sample Cc1nccc(-c2c(-c3ccc(F)cc3)ncn2CCCN2CCOCC2)n1.Cl [SB-282975] , its %Inh was 34

// sample Cc1ccc(NC(=O)Nc2ccc(Cl)c(C(F)(F)F)c2)cc1-c1ccc(C(=O)Nc2ccncc2)cc1 [GSK1398470] , its %Inh was 0

// sample Fc1ccc(-c2nc3n(c2-c2ccncc2)CCS3)cc1 [GI98581] , its %Inh was 21

----------
Test system: FER
Details: concentration: 1 μM, replicates: in singlicate; n = 1
If the reported %Inh equals or exceeds 20%, assign satisfied. If not, assign not satisfied.

# check: %Inh of Cc1ccc(NC(=O)Nc2ccc(Cl)cc2)cc1-c1ccc(C(=O)Nc2ccncc2)cc1 is greater than or equal to 20% not satisfied

# check: %Inh of CC(=O)c1c(C)c2cnc(Nc3ccn(C)n3)nc2n(C2CCCC2)c1=O is greater than or equal to 20% not satisfied

# check: %Inh of O=c1cc(N2CCOCC2)nc2n(Cc3cccc(Cl)c3Cl)c3ccccc3n12 is greater than or equal to 20% satisfied

# check: %Inh of COC(=O)c1cccc(NC(=O)NC2CCN(c3ccnc(Nc4ccc(F)cc4)n3)C2)c1 (stereo not shown) is greater than or equal to 20% not satisfied

# check: %Inh of Cc1nccc(-c2c(-c3ccc(F)cc3)ncn2CCCN2CCOCC2)n1.Cl is greater than or equal to 20% satisfied

# check: %Inh of Fc1ccc(-c2nc3n(c2-c2ccncc2)CCS3)cc1 is greater than or equal to 20% not satisfied

# check: %Inh of COc1ccc(Nc2nccc(-c3ccc(NC(=O)c4cc5cc(F)ccc5[nH]4)cc3)n2)cc1 is greater than or equal to 20% not satisfied

# check: %Inh of Nc1cccc(-c2ccc3c(N)n[nH]c3c2)n1 is greater than or equal to 20% not satisfied

# check: %Inh of Cc1c(Cn2c(C)c(C)n3c(=O)cc(N4CCOCC4)nc23)cccc1C(F)(F)F is greater than or equal to 20% not satisfied

# check: %Inh of COC(=O)C(Cc1ccccc1)NC(=O)NC1CCN(c2ccnc(Nc3ccc(F)cc3)n2)C1 (stereo not shown) is greater than or equal to 20% satisfied

# check: %Inh of CC(C)c1ccc(O)cc1Nc1ccnc2ccc(C(F)(F)F)cc12 is greater than or equal to 20% not satisfied

# check: %Inh of Cc1ccccc1-c1cc(-c2c[nH]nc2-c2ccccn2)ccn1 is greater than or equal to 20% not satisfied

# check: %Inh of COc1ccc(Nc2nccc(N3CCC(NC(=O)C(C)c4ccc(Cl)cc4)C3)n2)cc1 (stereo not shown) is greater than or equal to 20% satisfied

# check: %Inh of COc1cccc(C2=C(Nc3cc(Cl)c(O)c(Cl)c3)C(=O)NC2=O)c1 is greater than or equal to 20% not satisfied

# check: %Inh of CC(=O)c1c(C)c2cnc(Nc3ccc(N4CCNCC4)cn3)nc2n(C2CCCC2)c1=O is greater than or equal to 20% not satisfied

# check: %Inh of COc1cc2ncnc(Nc3cccc(Br)c3)c2cc1OC.Cl is greater than or equal to 20% satisfied

# check: %Inh of Cc1ccccc1Cn1ccn2c(=O)cc(N3CCOCC3)nc12 is greater than or equal to 20% not satisfied

# check: %Inh of O=c1cc(N2CCOCC2)nc2n(Cc3ccccc3F)ccn12 is greater than or equal to 20% satisfied

# check: %Inh of CCc1ccc(-c2ccc3c(c2)-c2n[nH]cc2S(=O)(=O)N3C)cc1 is greater than or equal to 20% not satisfied

----------
What %Inh was measured for each of the following?
Test system: CDKL1
Conditions: concentration: 1 μM, replicates: in singlicate; n = 1
Kindly answer with a numeric value in %, unit omitted.

// sample COc1ccc(Nc2nccc(N3CCC(NC(=O)C(C)c4ccc(Cl)cc4)C3)n2)cc1 (centres unmarked) , its %Inh was 100

// sample CCn1c(-c2ccccc2)nc2cnccc21 , its %Inh was 0

// sample O=C(Nc1n[nH]c2cc(-c3ccsc3)ccc12)C1CC1 , its %Inh was 10

// sample Cc1c(Cn2c3ccccc3n3c(=O)cc(N4CCOCC4)nc23)cccc1C(F)(F)F , its %Inh was 0

// sample Cc1ccccc1Cn1ccn2c(=O)cc(N3CCOCC3)nc12 , its %Inh was 12

// sample CNc1nc(-c2ccc3c(N)n[nH]c3c2)cc(N2C[C@@H](C(=O)NC3CCCCC3)OC[C@H]2C)n1 , its %Inh was 13

// sample Cc1cccc2c(-c3ccncn3)c(-c3ccc(F)cc3)nn12 , its %Inh was 0

// sample CCc1ccc(-c2ccc3c(c2)-c2n[nH]cc2S(=O)(=O)N3C)cc1 , its %Inh was 19

// sample CNCc1ccc2nc(NC(=O)c3ccc(C(C)(C)C)cc3)cn2c1 , its %Inh was 0

// sample COC(=O)c1cccc(NC(=O)NC2CCN(c3ccnc(Nc4ccc(OC)cc4)n3)C2)c1 (centres unmarked) , its %Inh was 14

// sample Cn1cncc1-c1cc2c(Nc3ccc(OCc4ccccc4)cc3)ncnc2cn1 , its %Inh was 100

// sample CS(=O)(=O)CCNCc1nc(-c2ccc3ncnc(Nc4ccc(OCc5ccccc5)c(Cl)c4)c3c2)cs1.Cl , its %Inh was 9

// sample Fc1ccc(-c2nc3n(c2-c2ccncc2)CCS3)cc1 , its %Inh was 2

// sample CS(=O)(=O)Cc1ccc(Nc2nccc(-c3c(-c4cccc(NC(=O)C5CCCCC5)c4)nn4ncccc34)n2)cc1 , its %Inh was 0

// sample CC(=O)c1c(C)c2cnc(Nc3ccn(C)n3)nc2n(C2CCCC2)c1=O , its %Inh was 0

// sample COc1ccc(Nc2nccc(N3CCC(NC(=O)C(C)c4ccc(Cl)cc4)CC3)n2)cc1 (centres unmarked) , its %Inh was 4

// sample Nc1ncnc2occ(-c3ccc4c(c3)CCN4C(=O)Cc3cc(F)ccc3F)c12 , its %Inh was 17

// sample CNc1nc(-c2ccc3c(N)n[nH]c3c2)cc(N2C[C@@H](C(=O)Nc3ccccc3)CC[C@H]2C)n1 , its %Inh was 3

// sample CNc1cc(-c2ccc3c(N)n[nH]c3c2)nc(N)n1 , its %Inh was 17

// sample CC(C)c1ccc(O)cc1Nc1ccnc2ccc(C(F)(F)F)cc12 , its %Inh was 0

// sample Cc1ccc(NC(=O)Nc2ccc(Cl)cc2)cc1-c1ccc(C(=O)Nc2ccncc2)cc1 , its %Inh was 3

// sample Cc1nccc(-c2c(-c3ccc(F)cc3)ncn2CCCN2CCOCC2)n1.Cl , its %Inh was 34

// sample COC(=O)c1cccc(NC(=O)NC2CCN(c3ccnc(Nc4ccc(F)cc4)n3)C2)c1 (centres unmarked) , its %Inh was 0

// sample CC(C)c1cc(-c2ccc3c(N)n[nH]c3c2)nc(N)n1 , its %Inh was 23

// sample COc1cccc(C2=C(Nc3cc(Cl)c(O)c(Cl)c3)C(=O)NC2=O)c1 , its %Inh was 1

// sample O=c1cc(N2CCOCC2)nc2n(Cc3ccccc3F)ccn12 , its %Inh was 0
